FYI, the data here is from patent US7442713B2.

- System: IL-1β
- ASSAY_METHOD_TEXT: In vitro test of cytokine release, LPS-stimulated human whole blood / PBMCs: IL-1β
- Assay type: cell-based
- EXPERIMENTAL_CONTEXT: PBMC, LPS stimulation, ELISA, read-out: Cytokines IC50 IL-1β
REPORTED_PROPERTY: pIC50
On this scale, pIC50 is minus log10 of a concentration expressed in M (mol/L).

API: value(readout= pIC50, system= IL-1β, query= O=C1OCCC1Sc1nc(-c2ccc(F)cc2)c(-c2ccncc2)[nH]1 (stereo not drawn) )
6.72

Same lookup for COC(=O)CSc1nc(-c2ccc(F)cc2)c(-c2ccncc2)[nH]1 [Example 25c] , please.
6.49

Same lookup for COC(=O)CCCSc1nc(-c2ccc(F)cc2)c(-c2ccncc2)[nH]1 [Example 25a] , please.
6.12

###

- Tested on: IL-1β
- ASSAY_METHOD_TEXT: In vitro test of cytokine release, LPS-stimulated human whole blood / PBMCs: IL-1β
- Format: cell-based
- EXPERIMENTAL_CONTEXT: PBMC, LPS stimulation, ELISA, read-out: Cytokines IC50 IL-1β
- Description: The compounds or compositions according to the invention can be administered to mammals (man or animal) in a dose of from about 0.5 mg to 100 mg per kg of body weight per day. They may be administered in one individual dose or in a plurality of doses. The activity spectrum of the compounds as inhibitors of cytokine release was examined using the test systems below, as described by C. Donat and S. Laufer in Arch. Pharm. Pharm. Med. Chem. 333, Suppl. 1, 1-40, 2000. In vitro Test with Human Whole Blood […]
REPORTED_PROPERTY: IC50 (nM)
Note: unit nM is implicit; provide only the numeric part.

Given the compound CCOC(=O)C(Sc1nc(-c2ccc(F)cc2)c(-c2ccncc2)[nH]1)C(=O)OCC [Example 22] , what is its reported IC50?
540

Same lookup for COC(=O)/C=C/CSc1nc(-c2ccc(F)cc2)c(-c2ccncc2)[nH]1 [Example 25b] , please.
650

Same lookup for COC(=O)CCCCSc1nc(-c2ccc(F)cc2)c(-c2ccncc2)[nH]1 [Example 25] , please.
1450

Same lookup for OCC(O)CSc1nc(-c2ccc(F)cc2)c(-c2ccncc2)[nH]1 (stereo not drawn) [Example 21] , please.
150

Same lookup for CC(=O)CSc1nc(-c2ccc(F)cc2)c(-c2ccncc2)n1C [Example 26] , please.
83

Same lookup for CN(C)C(=O)CSc1nc(-c2ccc(F)cc2)c(-c2ccncc2)n1C [Example 27] , please.
150

Same lookup for CCOC(=O)CSc1nc(-c2ccc(F)cc2)c(-c2ccncc2)[nH]1 [Example 25e] , please.
700

Same lookup for O=C1c2ccccc2C(=O)N1CCCSc1nc(-c2ccc(F)cc2)c(-c2ccncc2)[nH]1 [Example 25d] , please.
920

Same lookup for O=C(O)C(CCO)Sc1nc(-c2ccc(F)cc2)c(-c2ccncc2)[nH]1 (stereo not drawn) [Example 24] , please.
140

###

- TARGET_SYSTEM: activated p38α (Homo sapiens, UniProt Q16539)
- Sequence (Q16539 whole entry): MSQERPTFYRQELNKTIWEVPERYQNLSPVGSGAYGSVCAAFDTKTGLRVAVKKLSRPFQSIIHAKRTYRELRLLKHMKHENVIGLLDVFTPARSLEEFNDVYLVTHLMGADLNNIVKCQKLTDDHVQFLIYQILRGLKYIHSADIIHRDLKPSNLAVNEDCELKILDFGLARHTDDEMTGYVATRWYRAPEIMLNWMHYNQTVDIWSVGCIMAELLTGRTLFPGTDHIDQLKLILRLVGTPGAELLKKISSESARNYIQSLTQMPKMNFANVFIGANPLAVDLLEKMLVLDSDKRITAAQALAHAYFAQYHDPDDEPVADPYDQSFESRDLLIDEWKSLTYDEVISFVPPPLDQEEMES
- ASSAY_METHOD_TEXT: Kinase assay (p38α, ATF2 substrate, ELISA read-out)
- Format: biochemical
- EXPERIMENTAL_CONTEXT: Table 2; read-out: p38α IC50
pIC50: −log10 of the molar value.
pIC50 of 6 or higher: true. Under 6: false.

Threshold query (pIC50 >= 6) on CC(=O)Nc1cc(-c2c(-c3ccc(F)cc3)nc(SCC(O)CO)n2C)ccn1 (centres unmarked)
true

Same lookup for Cn1c(SCC(O)CO)nc(-c2ccc(F)cc2)c1-c1ccncc1 (centres unmarked) , please.
false

Same lookup for CC(=O)Nc1cc(-c2c(-c3ccc(F)cc3)nc(SCC(=O)N(CCO)CCO)n2C)ccn1 , please.
true

Same lookup for CCOC(=O)CCSc1nc(-c2ccc(F)cc2)c(-c2ccnc(NC(C)=O)c2)n1C , please.
true
